Reference source: patent US20240408093A1

# Tested on: GSPT1 (Homo sapiens, UniProt P15170+Q96SW2)
# Construct: host or cells: HEK293 LgBiT / GSPT1 HiBiT CRISPR knock-in
# Sequence (P15170 whole entry): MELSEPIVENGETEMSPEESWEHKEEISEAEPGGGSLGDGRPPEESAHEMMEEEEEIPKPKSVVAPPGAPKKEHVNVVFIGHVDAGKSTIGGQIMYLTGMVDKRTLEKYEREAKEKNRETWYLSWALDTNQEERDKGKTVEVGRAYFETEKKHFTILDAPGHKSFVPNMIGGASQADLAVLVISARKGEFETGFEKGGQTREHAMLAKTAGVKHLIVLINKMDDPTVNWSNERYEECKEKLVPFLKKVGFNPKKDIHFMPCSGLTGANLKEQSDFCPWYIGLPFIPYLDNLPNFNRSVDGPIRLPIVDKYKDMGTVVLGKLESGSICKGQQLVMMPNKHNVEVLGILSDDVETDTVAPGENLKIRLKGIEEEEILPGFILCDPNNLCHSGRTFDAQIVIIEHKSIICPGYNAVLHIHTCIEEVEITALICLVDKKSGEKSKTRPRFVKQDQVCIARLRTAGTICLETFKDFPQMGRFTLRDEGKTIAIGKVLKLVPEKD
# Sequence (Q96SW2 whole entry): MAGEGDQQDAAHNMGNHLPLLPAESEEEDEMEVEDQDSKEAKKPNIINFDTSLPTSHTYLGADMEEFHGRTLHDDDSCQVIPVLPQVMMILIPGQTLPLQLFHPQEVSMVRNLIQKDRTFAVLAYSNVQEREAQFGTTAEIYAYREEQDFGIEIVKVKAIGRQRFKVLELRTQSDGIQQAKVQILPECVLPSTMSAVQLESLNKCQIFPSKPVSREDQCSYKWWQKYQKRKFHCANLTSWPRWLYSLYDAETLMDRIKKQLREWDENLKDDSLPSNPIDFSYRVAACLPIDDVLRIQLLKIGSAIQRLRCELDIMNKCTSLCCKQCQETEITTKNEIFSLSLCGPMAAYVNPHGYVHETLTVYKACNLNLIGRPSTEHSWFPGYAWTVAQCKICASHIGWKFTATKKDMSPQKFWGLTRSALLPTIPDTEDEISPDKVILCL
# Sequence (Q16531 whole entry partner): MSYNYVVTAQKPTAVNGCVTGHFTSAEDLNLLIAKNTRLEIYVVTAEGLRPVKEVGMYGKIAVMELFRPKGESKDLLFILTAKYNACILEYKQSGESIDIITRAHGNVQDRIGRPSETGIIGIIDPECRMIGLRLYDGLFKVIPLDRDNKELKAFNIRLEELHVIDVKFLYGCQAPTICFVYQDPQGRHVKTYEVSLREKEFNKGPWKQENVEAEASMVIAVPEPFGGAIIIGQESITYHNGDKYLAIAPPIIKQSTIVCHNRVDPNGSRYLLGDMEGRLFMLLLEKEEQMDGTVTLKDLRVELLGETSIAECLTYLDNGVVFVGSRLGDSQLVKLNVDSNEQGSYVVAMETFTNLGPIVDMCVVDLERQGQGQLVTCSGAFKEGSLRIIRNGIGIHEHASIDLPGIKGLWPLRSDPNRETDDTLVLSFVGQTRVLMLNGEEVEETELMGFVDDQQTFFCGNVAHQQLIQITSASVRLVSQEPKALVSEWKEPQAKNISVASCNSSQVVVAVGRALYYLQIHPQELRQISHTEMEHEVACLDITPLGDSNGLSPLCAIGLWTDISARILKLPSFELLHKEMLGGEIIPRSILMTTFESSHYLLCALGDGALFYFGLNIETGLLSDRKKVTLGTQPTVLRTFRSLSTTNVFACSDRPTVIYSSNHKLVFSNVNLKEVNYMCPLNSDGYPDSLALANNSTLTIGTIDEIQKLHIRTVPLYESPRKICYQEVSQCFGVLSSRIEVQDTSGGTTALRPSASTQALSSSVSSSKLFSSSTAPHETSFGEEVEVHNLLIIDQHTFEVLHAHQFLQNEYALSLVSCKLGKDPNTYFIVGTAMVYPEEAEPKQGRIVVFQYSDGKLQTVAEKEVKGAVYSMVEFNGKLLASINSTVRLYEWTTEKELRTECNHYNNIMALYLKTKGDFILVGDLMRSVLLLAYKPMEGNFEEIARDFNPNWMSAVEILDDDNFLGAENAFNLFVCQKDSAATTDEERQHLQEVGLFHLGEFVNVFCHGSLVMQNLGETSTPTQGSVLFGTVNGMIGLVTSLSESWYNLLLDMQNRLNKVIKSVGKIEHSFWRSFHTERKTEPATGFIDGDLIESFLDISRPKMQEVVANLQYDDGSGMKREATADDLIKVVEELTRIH
# Test: GSPT1 HiBiT degradation assay
# Type: cell-based
# Reported conditions: HEK293 LgBiT GSPT1 HiBiT cells, 6 hours
Listed compounds paired with reported DC50

1. C=C(COc1cc(NC(=O)NCc2ccc3c(c2)CN(C2CCC(=O)NC2=O)C3=O)cc(C(F)(F)F)c1)C(=O)N1CC2(CC(n3nc(-c4ccc5c(cnn5C)c4)c(-c4c(Cl)c(C)cc5[nH]ncc45)c3C)C2)C1 (centres unmarked) [Compound I-77]: 0.05 to 0.5 µM
2. C=C(COc1cc(NC(=O)NCc2ccc3c(c2)CN(C2CCC(=O)NC2=O)C3=O)cc(OC)c1)C(=O)N1CC2(CC(n3nc(-c4ccc5c(cnn5C)c4)c(-c4c(Cl)c(C)cc5[nH]ncc45)c3C)C2)C1 (centres unmarked) [Compound I-67]: 0.5 to 2.5 µM

Request body: readout DC50, system GSPT1 (Homo sapiens, UniProt P15170+Q96SW2), query C=C(COc1cc(NC(=O)NCc2ccc3c(c2)CN(C2CCC(=O)NC2=O)C3=O)cc(OC)c1)C(=O)N1CCN(c2nc(OC[C@@H]3CCCN3C)nc3c2CCN(c2cccc4cccc(Cl)c24)C3)C[C@@H]1CC#N (some centres unmarked) [Compound I-50] . Return the value.
> 2.5 µM

====

# Tested on: GSPT1 (Homo sapiens, UniProt P15170+Q96SW2)
# Construct: host or cells: HEK293 LgBiT / GSPT1 HiBiT CRISPR knock-in
# Test: GSPT1 HiBiT degradation assay
# Type: cell-based
# Reported conditions: HEK293 LgBiT GSPT1 HiBiT cells, 6 hours
# Source text: Promega developed a HEK293 cell line that constitutively expresses LgBiT protein and GSPT1_HiBiT fusion protein. […] Endurazine, a cell permeable small molecule, is converted by cellular esterases into furimazine, which the luciferase enzyme uses as a substrate to generate luminescence. […] This prevents formation of fully functional luciferase, leading to a loss in luminescence. GSPT1 degradation therefore correlates with a decrease in luminescence and can be measured continuously over time. […]
Listed compounds paired with reported DC50

1. C=C(CN(Cc1ccc2c(c1)CN(C1CCC(=O)NC1=O)C2=O)C(=O)Nc1ccc(C)c(Cl)c1)C(=O)N1CCC[C@@H](n2nc(-c3ccc(Oc4ccccc4)cc3)c3c(N)ncnc32)C1 (some centres unmarked) [Compound I-31]: > 2500 nM
2. C=C(COc1ccccc1NC(=O)NCc1ccc2c(c1)CN(C1CCC(=O)NC1=O)C2=O)C(=O)N1CCN(c2nc(OC[C@H]3CCCN3C)nc3c2CCN(c2cccc4cccc(Cl)c24)C3)C[C@H]1CC#N (some centres unmarked) [Compound I-80]: > 2500 nM
3. C=C(COc1cc(Cl)cc(NC(=O)NCc2ccc3c(c2)CN(C2CCC(=O)NC2=O)C3=O)c1)C(=O)N1C[C@H](COc2nc(Nc3cnn(C)c3)nc3[nH]cc(Cl)c23)[C@@H](OC)C1 (some centres unmarked) [Compound I-54]: < 50 nM
4. C=C(COc1cc(Cl)cc(NC(=O)NCc2ccc3c(c2)CN(C2CCC(=O)NC2=O)C3=O)c1)C(=O)N[C@@H]1CN(c2nc(Nc3cn(C)nc3OC)c3ncn(C)c3n2)C[C@H]1F (some centres unmarked) [Compound I-45]: 500 to 2500 nM
5. C=C(COc1ccc(Cl)cc1NC(=O)NCc1ccc2c(c1)CN(C1CCC(=O)NC1=O)C2=O)C(=O)N1CCN(c2nc(OC[C@@H]3CCCN3C)nc3c2CCN(c2cccc4cccc(Cl)c24)C3)C[C@@H]1CC#N (some centres unmarked) [Compound I-52]: 500 to 2500 nM
6. C=C(CN(C(=O)NCc1ccc2c(c1)CN(C1CCC(=O)NC1=O)C2=O)c1ccc(C)c(Cl)c1)C(=O)Nc1cccc(Oc2nc(Nc3ccc(N4CCN(C)CC4)cc3)nc3ccsc23)c1 (centres unmarked) [Compound I-70]: > 2500 nM
7. C=C(COc1cc(Cl)cc(NC(=O)NCc2ccc3c(c2)CN(C2CCC(=O)NC2=O)C3=O)c1)C(=O)N1CCN(c2nc(OC[C@@H]3CCCN3C)nc3c2CCN(c2cccc4cccc(Cl)c24)C3)C[C@@H]1CC#N (some centres unmarked) [Compound I-35]: > 2500 nM

Next up:
Item under review: C=C(COc1ccc(CN2C(=O)CCC(N3Cc4cc(CNC(=O)Nc5ccc(C)c(Cl)c5)ccc4C3=O)C2=O)cc1)C(=O)N1CCN(c2nc(OC[C@H]3CCCN3C)nc3c2CCN(c2cccc4cccc(Cl)c24)C3)C[C@@H]1CC#N (stereo in doubt) [Compound I-44] . Reported DC50?
> 2500 nM
